Cited source for all entries: the emibetuzumab library of Makowski et al. (2022)

B1: VH:VL chains; a variant is named by its letters at X, in order (parent)
chain 1: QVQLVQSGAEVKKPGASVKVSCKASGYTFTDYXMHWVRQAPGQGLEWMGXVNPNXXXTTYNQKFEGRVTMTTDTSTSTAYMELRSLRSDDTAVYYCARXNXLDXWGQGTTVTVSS
chain 2: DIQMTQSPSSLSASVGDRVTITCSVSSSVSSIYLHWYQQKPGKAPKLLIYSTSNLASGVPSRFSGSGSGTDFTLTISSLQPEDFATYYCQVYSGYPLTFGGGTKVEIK

# Variants of: B1
# Procedure details: yeast display scFab, FACS + sequencing
Measured metric: non-specific binding call

In [3]: df
Out[3]:
                      var   obs_value
 0               VRRGGAAS       binds
 1               FARKSYGA       binds
 2               FTGRAYGF       binds
 3               VEKGGDVS  no binding
 4               FARGASGV       binds
 5               YKRGDSSS  no binding
 6               VETGNDVA  no binding
 7               YRARSAWS       binds
 8               YRERGALS       binds
 9               YTGTGAVF  no binding
10               VRTEDDWV  no binding
11               DGRGNSGD  no binding
12               YRRGGAAF       binds
13               VRGRDYGD       binds
14               VRGKGASA       binds
15               YRRRGVGY       binds
16  AEARAAGS chain 1 V37I       binds
17               YEAGTAVA  no binding
18               YRRRGSLA       binds
19               DATGGALD  no binding
20               AAEGGYAV       binds
21               YRAGAASD       binds
22               YKGEGDGV  no binding
23               DTATADWA  no binding
24               FKGEGYGV       binds
25               VEGGGYSV  no binding
26               AKGRADVY  no binding
27               YTKRGSAA       binds
28               YARADSSV  no binding
29               VEGGTAGS  no binding
30               YTERGFGV  no binding
31               YRGKGAWA       binds
32               FRRRGSAA       binds
33               FRKGDASD       binds
34               VAEEDAGY  no binding
35               YRKGASAF       binds
36               FKRRSVGA       binds
37               YREKGAAA       binds
38               YKRGGAGS       binds
39               VKGRADSF  no binding
40               FRERGALA       binds
41               YAGRGDAS  no binding
42               YTAGSDGV  no binding
43               YRARGAGY       binds
44               FRGRDDLV  no binding
45               VETRSSSV  no binding
46               DRGRDDAA  no binding
47               SAREGSSA  no binding
48               FTTRGAVA  no binding
49               VRAGGSVA       binds
50               DTTGSDWV  no binding
51               FKGKGSAD       binds
52               FRGRDYGS       binds
53               VRTEDDVY  no binding
54               YRTRGAGV       binds
55               DTKRTAGD  no binding
56               VTTKSAGD  no binding
57               SARRGDWA       binds
58               DAGGGYSV  no binding
59               YRGGAAAA       binds
60               DAGKGALF  no binding
61               VEEEGALD  no binding
62               DAGGASGV  no binding
63               VAEAAVGD       binds
64               VKTGGAGA  no binding
65               DAGEAFSF  no binding
66               VAEKGDGA  no binding
67               DAARGDAA  no binding
68               YRGESAWV       binds
69               FEGGTDVV  no binding
70               YKRKSASD       binds
71               YRARGAVA       binds
72               DATGGDVF  no binding
73               FTGGDALA  no binding
74               YTTRGSWV  no binding
75               VEGGNDGA  no binding
76               DETKGDWD  no binding
77               YGETGFWY       binds
78               VRGKAAVS       binds
79               FRGRDSSF       binds
80               YRAGGSWF       binds
81               AARADDSV  no binding
82               DRGGDSSS  no binding
83  VEARNDWA chain 1 M81I       binds
84               YRGRGFAY       binds
85               STGRADWA  no binding
86               SRGRGFVA       binds
87               FTRTNFLS       binds
88               FKRKNSAA       binds
89               YKAGGYSD       binds
90               YRGKGFVA       binds
